assay: qHTS assay to identify small molecule antagonists of the sonic hedgehog signaling (Shh) pathway (AID 1259369); further: nearly all actives have a fitted effect of over 45% in size
experimental parameters: NIH/3T3 Gli1-Luc reporter, Shh antagonist, luminescence 24 h; series mostly up to 92.4 µM
Inconclusive results are not listed. The source made the active and inactive calls. The call rests on the fitted dose curve.
Choose one outcome from this list and give only that: Y for active, N for inactive

Ask: I'd appreciate the recorded outcome for `COC(=O)c1ccccc1C` from this test.
Result: N

Ask: I'd appreciate the recorded outcome for CCCCCCOC(=O)C(C)CC (stereo unspecified) from this test.
Result: N

Ask: I'd appreciate the recorded outcome for `O=C(O)c1cc(-c2ccc(F)cc2F)ccc1O` from this test.
Result: N

Ask: I'd appreciate the recorded outcome for OC1CCCc2ccccc21 (stereo unspecified) from this test.
Result: N

Ask: I'd appreciate the recorded outcome for `C1CCC(SSC2CCCCC2)CC1` from this test.
Result: N

Ask: I'd appreciate the recorded outcome for `CCC(=O)C(=O)CC` from this test.
Result: N

Ask: I'd appreciate the recorded outcome for `OC[C@H]1O[C@H](O[C@H]2O[C@H](CO)[C@@H](O)[C@H](O)[C@H]2O)[C@H](O)[C@@H](O)[C@@H]1O` from this test.
Result: N

Ask: I'd appreciate the recorded outcome for `C=C(C)C(=O)OCCCCCCCCCC` from this test.
Result: Y

Ask: I'd appreciate the recorded outcome for `CC1(C)[C@@H](O)CC[C@]2(C)[C@H]3C(=O)C=C4[C@@H]5C[C@@](C)(C(=O)O)CC[C@]5(C)CC[C@@]4(C)[C@]3(C)CC[C@@H]12` from this test.
Result: N

Ask: I'd appreciate the recorded outcome for `CC(C)OC(=O)C(O)(CC(=O)O)CC(=O)O` from this test.
Result: N

Ask: I'd appreciate the recorded outcome for `Sc1nc2ccccc2s1` from this test.
Result: Y

Ask: I'd appreciate the recorded outcome for `c1cnccn1` from this test.
Result: N

Ask: I'd appreciate the recorded outcome for `NC(=O)c1cccc([N+](=O)[O-])c1` from this test.
Result: N

Ask: I'd appreciate the recorded outcome for `O=C(O)Cc1ccccc1Nc1c(Cl)cccc1Cl` from this test.
Result: N

Ask: I'd appreciate the recorded outcome for CC(C(=O)O)c1ccc2c(c1)[nH]c1ccc(Cl)cc12 (stereo unspecified) from this test.
Result: N

Ask: I'd appreciate the recorded outcome for `Cc1cc(C(C)(C)C)cc(C)c1CC1=NCCN1` from this test.
Result: N

Ask: I'd appreciate the recorded outcome for `CC(C)CCCCCOC(=O)CCS` from this test.
Result: N

Ask: I'd appreciate the recorded outcome for `COc1c(C)c2c(c(O)c1C/C=C(\C)CCC(=O)OCCN1CCOCC1)C(=O)OC2` from this test.
Result: N

Ask: I'd appreciate the recorded outcome for `CCc1ccc(Br)cc1` from this test.
Result: N

Ask: I'd appreciate the recorded outcome for `C=CC(=O)OCCOC(=O)C=C` from this test.
Result: N

Ask: I'd appreciate the recorded outcome for `O=[N+]([O-])c1ccc(O)cc1C(F)(F)F` from this test.
Result: N

Ask: I'd appreciate the recorded outcome for `OC[C@@H](O)[C@@H](O)CO` from this test.
Result: N

Ask: I'd appreciate the recorded outcome for `CC1=Nc2ccccc2C1(C)C` from this test.
Result: N

Ask: I'd appreciate the recorded outcome for `COc1cc(/C=C/c2ccccc2)oc(=O)c1` from this test.
Result: N

Ask: I'd appreciate the recorded outcome for `Cc1ccc(O)c(O)c1` from this test.
Result: Y

Ask: I'd appreciate the recorded outcome for CC(CCc1ccccc1)NCC(O)c1ccc(O)c(C(N)=O)c1 (stereo unspecified) from this test.
Result: Y

Ask: I'd appreciate the recorded outcome for `O=C(O)c1cc(N=Nc2ccc([N+](=O)[O-])cc2)ccc1O` from this test.
Result: N

Ask: I'd appreciate the recorded outcome for `CCCCCCCC/C=C\CCCCCCCCN` from this test.
Result: N

Ask: I'd appreciate the recorded outcome for `O=S(=O)(O)c1ccc(Nc2nc(Nc3ccc(/C=C/c4ccc(Nc5nc(Nc6ccc(S(=O)(=O)O)cc6)nc(N(CCO)CCO)n5)cc4S(=O)(=O)O)c(S(=O)(=O)O)c3)nc(N(CCO)CCO)n2)cc1` from this test.
Result: N

Ask: I'd appreciate the recorded outcome for `CCN(CCN)c1cccc(C)c1` from this test.
Result: Y

Ask: I'd appreciate the recorded outcome for `COC(=O)c1ccccc1OC` from this test.
Result: N

Ask: I'd appreciate the recorded outcome for `O=C(O)CCN(C1(C(=O)NO)CCCC1)S(=O)(=O)c1ccc(Oc2ccc(F)cc2)cc1` from this test.
Result: N

Ask: I'd appreciate the recorded outcome for CCC(C)n1ncn(-c2ccc(N3CCN(c4ccc(OC[C@H]5CO[C@](Cn6cncn6)(c6ccc(Cl)cc6Cl)O5)cc4)CC3)cc2)c1=O (stereo partly specified) from this test.
Result: Y

Ask: I'd appreciate the recorded outcome for `COCCOc1cc2cc(C(=O)NC3CCN(C(C)C)CC3)n(CC(=O)Nc3ccc(Cl)cn3)c2cn1` from this test.
Result: Y

Ask: I'd appreciate the recorded outcome for `CCN(CC)C(=O)c1cc(S(=O)(=O)Cc2ccccc2)c(N2CCC(c3ccccc3)CC2)cc1N(CC)CCN(C)C` from this test.
Result: Y

Ask: I'd appreciate the recorded outcome for `FC(F)(F)c1cccc(Cl)c1` from this test.
Result: N

Ask: I'd appreciate the recorded outcome for `CC(=O)OCC=C(C)C` from this test.
Result: N

Ask: I'd appreciate the recorded outcome for CCCCCCC1CCCC(=O)O1 (stereo unspecified) from this test.
Result: N

Ask: I'd appreciate the recorded outcome for C=CCCC(=O)/C=C/C1C(C)=CCCC1(C)C (stereo unspecified) from this test.
Result: N

Ask: I'd appreciate the recorded outcome for `O=C(/C=C/c1ccccc1)OC/C=C/c1ccccc1` from this test.
Result: N

Ask: I'd appreciate the recorded outcome for `Fc1ccc(C(c2ccc(F)cc2)N2CCNCC2)cc1` from this test.
Result: Y

Ask: I'd appreciate the recorded outcome for `OC/C=C/CO` from this test.
Result: N

Ask: I'd appreciate the recorded outcome for CCCCCCCCCCCC(=O)OCC(C)OC(=O)CCCCC(=O)O (stereo unspecified) from this test.
Result: N

Ask: I'd appreciate the recorded outcome for `Nc1nc2c(ncn2COCCO)c(=O)[nH]1` from this test.
Result: N

Ask: I'd appreciate the recorded outcome for `Cc1cccc(C(=O)O)c1O` from this test.
Result: N

Ask: I'd appreciate the recorded outcome for `O=c1[nH]c(=O)n([C@H]2C[C@H](O)[C@@H](CO)O2)cc1F` from this test.
Result: N

Ask: I'd appreciate the recorded outcome for `CC[N+](CC)(CC)CCOC(=O)C(C1CCCC1)C1CCCC1` from this test.
Result: N

Ask: I'd appreciate the recorded outcome for `COc1ccc(NC(=O)CC(C)=O)cc1` from this test.
Result: N

Ask: I'd appreciate the recorded outcome for `CC1(C)CCC[C@]2(C)[C@H]3CC(=O)O[C@]3(C)CC[C@@H]12` from this test.
Result: Y

Ask: I'd appreciate the recorded outcome for `Nc1ccc(NCCO)c([N+](=O)[O-])c1` from this test.
Result: N

Ask: I'd appreciate the recorded outcome for `O=C1CCc2cc(OCCCCc3nnnn3C3CCCCC3)ccc2N1` from this test.
Result: Y

###

test system: Thyrotropin receptor (Homo sapiens) (UniProt P16473)
Sequence (P16473 whole entry, looked up): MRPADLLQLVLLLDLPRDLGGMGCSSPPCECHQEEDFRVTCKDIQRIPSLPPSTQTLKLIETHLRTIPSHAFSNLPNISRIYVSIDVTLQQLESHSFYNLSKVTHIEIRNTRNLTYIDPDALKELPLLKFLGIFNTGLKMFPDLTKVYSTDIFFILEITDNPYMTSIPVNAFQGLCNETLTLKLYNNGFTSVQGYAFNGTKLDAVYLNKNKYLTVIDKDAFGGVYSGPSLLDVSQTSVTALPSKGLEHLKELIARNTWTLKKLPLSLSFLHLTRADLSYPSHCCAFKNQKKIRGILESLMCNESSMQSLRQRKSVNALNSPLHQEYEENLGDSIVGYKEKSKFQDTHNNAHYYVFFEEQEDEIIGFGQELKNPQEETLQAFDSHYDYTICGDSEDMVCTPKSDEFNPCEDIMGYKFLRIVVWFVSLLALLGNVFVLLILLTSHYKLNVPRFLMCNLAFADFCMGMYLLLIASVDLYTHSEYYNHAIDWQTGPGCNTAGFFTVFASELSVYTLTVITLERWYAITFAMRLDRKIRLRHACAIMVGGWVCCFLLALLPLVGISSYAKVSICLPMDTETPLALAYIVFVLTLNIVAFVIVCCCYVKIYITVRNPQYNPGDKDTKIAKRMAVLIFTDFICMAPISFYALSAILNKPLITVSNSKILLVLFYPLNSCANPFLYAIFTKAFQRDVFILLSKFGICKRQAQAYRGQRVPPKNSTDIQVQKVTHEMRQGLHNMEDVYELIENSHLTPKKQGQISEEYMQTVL
assay: qHTS assay to identify small molecule antagonists of the thyroid stimulating hormone receptor (TSHR) signaling pathway (AID 1259385); further: nearly all actives have a fitted effect of over 20% in size
experimental parameters: TSHR-HEK293 cAMP HTRF, TSH-stimulated antagonist mode; series mostly up to 92.4 µM
Inconclusive results are not listed. Active and inactive are the calls of the source. The call rests on the fitted dose curve.
measured attribute: activity change, negative = inhibition

| compound | result |
| --- | --- |
| CC1(C)CCC[C@]2(C)[C@H]3CC(=O)O[C@]3(C)CC[C@@H]12 | inactive |
| CCCCCCOC(=O)C(C)CC (stereo unspecified) | inactive |
| OC[C@H]1O[C@H](O[C@H]2O[C@H](CO)[C@@H](O)[C@H](O)[C@H]2O)[C@H](O)[C@@H](O)[C@@H]1O | inactive |
| Clc1sc(Cl)c(Cl)c1Cl | inactive |
| O=C(O)Cc1ccccc1Nc1c(Cl)cccc1Cl | inactive |

Continue with the next compound.
Lab note: `CCC(C)[O-].CCC(C)[O-].CCOC(=O)/C=C(/C)[O-].[Al+3]` gave activity change, negative = inhibition of inactive

###

test system: Cytochrome P450 2C19 (Homo sapiens) (UniProt P33261)
Sequence (P33261 whole entry, looked up): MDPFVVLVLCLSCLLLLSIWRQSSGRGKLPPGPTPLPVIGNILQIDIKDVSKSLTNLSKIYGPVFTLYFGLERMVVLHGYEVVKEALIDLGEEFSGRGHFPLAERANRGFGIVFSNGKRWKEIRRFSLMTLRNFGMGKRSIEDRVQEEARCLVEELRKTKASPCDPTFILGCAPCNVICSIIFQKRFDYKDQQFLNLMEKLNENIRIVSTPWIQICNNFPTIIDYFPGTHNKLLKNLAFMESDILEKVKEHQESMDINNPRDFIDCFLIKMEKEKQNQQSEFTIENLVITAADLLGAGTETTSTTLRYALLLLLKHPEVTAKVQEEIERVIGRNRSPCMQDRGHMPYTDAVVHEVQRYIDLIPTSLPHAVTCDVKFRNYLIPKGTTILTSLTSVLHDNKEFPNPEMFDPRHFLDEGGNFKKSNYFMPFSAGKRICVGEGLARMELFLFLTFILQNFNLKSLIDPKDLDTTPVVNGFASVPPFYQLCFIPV
assay: Cytochrome P450 Family 2 Subfamily C Member 19 (CYP2C19) small molecule antagonists: luciferase reporter qHTS assay (AID 1671197); further: nearly all actives have a fitted effect of over 65% in size
experimental parameters: P450-Glo CYP2C19 enzyme, luciferin luminescence, 1 h; series mostly up to 115 µM
Inconclusive results are not listed. The source made the active and inactive calls. The call rests on the fitted dose curve; in most records, active means well fitted inhibition curve with a large enough effect in the repeat runs; inconclusive means weak or mixed curves; inactive means no such curve, though single readings can be large or run the other way.
Choose one outcome from this list and give only that: active, inactive

Ask: I'd appreciate the recorded outcome for `NC(=O)c1cccc([N+](=O)[O-])c1` from this test.
Result: inactive

Ask: I'd appreciate the recorded outcome for `[Cl][Pt-2]([Cl])([Cl])[Cl]` from this test.
Result: active

Ask: I'd appreciate the recorded outcome for `CC(=O)CC(=O)Nc1ccc(S(=O)(=O)O)cc1` from this test.
Result: inactive

Ask: I'd appreciate the recorded outcome for `CCCCCCCCCCCCCC[N+](C)(C)C` from this test.
Result: active

Ask: I'd appreciate the recorded outcome for `CCCCNS(=O)(=O)c1ccc(C)cc1` from this test.
Result: active

Ask: I'd appreciate the recorded outcome for `Cc1ccc(O)c(O)c1` from this test.
Result: inactive

Ask: I'd appreciate the recorded outcome for `O=C(O)O` from this test.
Result: active

Ask: I'd appreciate the recorded outcome for `CC1(C)CC(O)CC(C)(C)N1` from this test.
Result: inactive

Ask: I'd appreciate the recorded outcome for `CCc1cccc(CC)c1NC(=O)CN(CC(=O)O)CC(=O)O` from this test.
Result: inactive

Ask: I'd appreciate the recorded outcome for `CC(C)=CCNc1ncnc2c1ncn2[C@@H]1O[C@H](CO)[C@@H](O)[C@H]1O` from this test.
Result: inactive

Ask: I'd appreciate the recorded outcome for CCCCCC(C)OC(=O)COc1ccc(Cl)c2cccnc12 (stereo not drawn) from this test.
Result: active

Ask: I'd appreciate the recorded outcome for `CC(C)(C)NSc1nc2ccccc2s1` from this test.
Result: active

Ask: I'd appreciate the recorded outcome for CN1CCN2c3ccccc3Cc3ccccc3C2C1 (stereo not drawn) from this test.
Result: inactive

Ask: I'd appreciate the recorded outcome for `Cc1cccc2cccnc12` from this test.
Result: active

Ask: I'd appreciate the recorded outcome for `Clc1ccnc(Cl)n1` from this test.
Result: inactive

Ask: I'd appreciate the recorded outcome for `Cc1cc(C(C)(C)C)c(O)c(C)c1Cn1c(=O)n(Cc2c(C)cc(C(C)(C)C)c(O)c2C)c(=O)n(Cc2c(C)cc(C(C)(C)C)c(O)c2C)c1=O` from this test.
Result: active

Ask: I'd appreciate the recorded outcome for `O=[N+]([O-])c1cccc(C(F)(F)F)c1` from this test.
Result: inactive

Ask: I'd appreciate the recorded outcome for `CCC(CC)(CC(=O)Nc1cccc(/C=C/c2nc(C3CCC3)cs2)c1)C(=O)O` from this test.
Result: inactive

Ask: I'd appreciate the recorded outcome for `C#C[C@]1(OC(C)=O)CC[C@H]2[C@@H]3CCC4=C/C(=N/O)CC[C@@H]4[C@H]3CC[C@@]21CC` from this test.
Result: active

Ask: I'd appreciate the recorded outcome for `CN(C)Cc1ccccc1O` from this test.
Result: inactive

Ask: I'd appreciate the recorded outcome for `C=Cc1ccccc1C=C` from this test.
Result: inactive

Ask: I'd appreciate the recorded outcome for `COc1ccc2cc1Oc1ccc(cc1)C[C@H]1c3c(cc4c(c3Oc3cc5c(cc3OC)CCN(C)[C@@H]5C2)OCO4)CCN1C` from this test.
Result: inactive

Ask: I'd appreciate the recorded outcome for `Cc1nc2n(c(=O)c1CCN1CCC(c3noc4cc(F)ccc34)CC1)CCCC2` from this test.
Result: inactive

Ask: I'd appreciate the recorded outcome for `COc1cc(S(=O)(=O)O)c(C)cc1N=Nc1c(O)ccc2cc(S(=O)(=O)O)ccc12` from this test.
Result: active

Ask: I'd appreciate the recorded outcome for `Cc1cccc(C)c1NC(=O)c1ccc(N)cc1` from this test.
Result: inactive

Ask: I'd appreciate the recorded outcome for `CCN(CC)c1ccc2c(-c3ccc(S(=O)(=O)O)cc3S(=O)(=O)[O-])c3ccc(=[N+](CC)CC)cc-3oc2c1` from this test.
Result: active

Ask: I'd appreciate the recorded outcome for `O=C(c1ccc(O)c(O)c1)c1ccc(O)cc1O` from this test.
Result: active

Ask: I'd appreciate the recorded outcome for `O=C(O)CCN(C1(C(=O)NO)CCCC1)S(=O)(=O)c1ccc(Oc2ccc(F)cc2)cc1` from this test.
Result: inactive

Ask: I'd appreciate the recorded outcome for `C=C(C)C(=O)OCCCCCCCCCC` from this test.
Result: active

Ask: I'd appreciate the recorded outcome for `CC(C)(C)C1CCC(=O)CC1` from this test.
Result: active

Ask: I'd appreciate the recorded outcome for `CCCc1ccc(OCC(=O)N2CCN(C(=O)COc3ccc(CCC)cc3OC)CC2)c(OC)c1` from this test.
Result: active

Ask: I'd appreciate the recorded outcome for `OCC(F)(F)F` from this test.
Result: active

Ask: I'd appreciate the recorded outcome for `Cc1cc(C(C)(C)C)cc(C)c1CC1=NCCN1` from this test.
Result: inactive
